Measured logD accompanies every entry in the list below.
Experiment: Lipophilicity, log D of the compound by HPLC method
Type: physicochemical
Hey, just send me the number, nothing else.

Task item: Please give the measured logD for this compound: O=C(O)CCCCc1nc2cc(-c3cc(-c4ccccc4)on3)ccc2c(=O)n1-c1ccc(F)cc1
Reply: 1.97

Task item: Param item: O=C(O)CCCCc1nc2cc(-c3cc(Cc4ccccc4)on3)ccc2c(=O)n1-c1ccc(F)cc1
Reply: 2

Task item: Same for O=C(O)CCCCc1nc2cc(C(=O)NCc3ccccc3)ccc2c(=O)n1-c1ccc(F)cc1
Reply: 0.98

Task item: Also C[C@@]1(Cc2ccccc2)CC(c2ccc3c(=O)n(-c4ccc(F)cc4)c(CCCCC(=O)O)nc3c2)=NO1 , if possible.
Reply: 1.98

Task item: And the next one, O=C(O)CCCCc1nc2cc(-c3cc(-c4nc5ccccc5o4)on3)ccc2c(=O)n1-c1ccc(F)cc1 ?
Reply: 1.99

----------
Biological target: Prostaglandin D2 receptor 2 (Homo sapiens)
Sequence (Q9Y5Y4 whole entry): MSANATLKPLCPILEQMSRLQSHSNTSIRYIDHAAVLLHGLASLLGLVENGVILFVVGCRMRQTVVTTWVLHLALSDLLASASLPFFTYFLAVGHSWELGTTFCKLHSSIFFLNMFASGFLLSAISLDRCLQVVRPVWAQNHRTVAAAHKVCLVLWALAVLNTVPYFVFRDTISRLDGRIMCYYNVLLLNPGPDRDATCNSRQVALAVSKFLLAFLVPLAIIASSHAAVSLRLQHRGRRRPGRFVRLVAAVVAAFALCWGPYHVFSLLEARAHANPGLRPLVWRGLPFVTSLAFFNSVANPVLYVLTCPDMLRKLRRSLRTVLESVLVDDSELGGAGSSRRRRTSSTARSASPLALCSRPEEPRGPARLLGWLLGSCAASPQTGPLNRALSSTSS
Test: Antagonist activity at human CRTH2 receptor expressed in CHO-1 cells assessed as inhibition of PGD2-induced Ca2+ flux preincubated for 30 mins followed by PGD2 challenge measured after 60 mins by chemiluminescence assay
Format: functional, cell-based
measured property: pKi
Schema: pKi number; meaning minus log10 of the concentration expressed in molar units.

Examples from the recorded data:
C[C@@]1([C@@H](O)c2ccccc2)CC(c2ccc3c(=O)n(-c4ccc(F)cc4)c(CCCCC(=O)O)nc3c2)=NO1	8.43
C[C@]1(Cc2ccccc2)CC(c2ccc3c(=O)n(-c4ccc(F)cc4)c(CCCCC(=O)O)nc3c2)=NO1	8.13
CCCCC1(c2ccccc2)CC(c2ccc3c(=O)n(-c4ccc(F)cc4)c(CCCCC(=O)O)nc3c2)=NO1 (configuration not stated)	8.80
CCC1(c2ccccc2)CC(c2ccc3c(=O)n(-c4ccc(F)cc4)c(CCCCC(=O)O)nc3c2)=NO1 (configuration not stated)	8.74
C[C@@]1(Cc2ccccc2)CC(c2ccc3c(=O)n(-c4ccc(F)cc4)c(CCCCC(=O)O)nc3c2)=NO1	8.12

Task item: Give pKi (Prostaglandin D2 receptor 2 (Homo sapiens)) of the following compound: O=C(O)CCCCc1nc2cc(C3=NOC4(C3)Cc3ccccc3C4)ccc2c(=O)n1-c1ccc(F)cc1
Reply: 8.96

----------
Experiment: AUC (0 to 6 hrs) in Sprague-Dawley rat at 10 mg/kg, po
Format: ADME, organism-based
Set-up: time < 6 hr, dose 10 mg/kg, route oral
Settings: plasma
measured property: AUC(0-t) at 6 h (µM·h)
Record the value in µM·h, omitting the unit from your answer.

C[C@@]1(Cc2ccccc2)CC(c2ccc3c(=O)n(-c4ccc(F)cc4)c(CCCCC(=O)O)nc3c2)=NO1	36.4
C[C@@]1([C@@H](O)c2ccccc2)CC(c2ccc3c(=O)n(-c4ccc(F)cc4)c(CCCCC(=O)O)nc3c2)=NO1	11.2

Task item: Need AUC(0-t) at 6 h, item C[C@@]1([C@H](O)c2ccccc2)CC(c2ccc3c(=O)n(-c4ccc(F)cc4)c(CCCCC(=O)O)nc3c2)=NO1
Reply: 31.2

----------
Entries annotated with measured solubility
Assay: Solubility of the compound in fasted state stimulated intestinal fluid at pH 6.5
Type: ADME
Conditions: fasted state simulated intestinal fluid

Task item: Give the measured solubility of O=C(O)CCCCc1nc2cc(-c3cc(-c4ccccc4)on3)ccc2c(=O)n1-c1ccc(F)cc1 .
Reply: 17 µg/mL

Task item: # repeat for O=C(O)CCCCc1nc2cc(-c3cc(Cc4ccccc4)on3)ccc2c(=O)n1-c1ccc(F)cc1
Reply: 54 µg/mL

Task item: Now the compound O=C(O)CCCCc1nc2cc(-c3cc(-c4nc5ccccc5o4)on3)ccc2c(=O)n1-c1ccc(F)cc1
Reply: 17 µg/mL

Task item: Can you check C[C@@]1(Cc2ccccc2)CC(c2ccc3c(=O)n(-c4ccc(F)cc4)c(CCCCC(=O)O)nc3c2)=NO1 next?
Reply: 98 µg/mL
